# protocol_notes: Shn3 3'UTR reporter inhibitors, dose response, cell-based, Clone20 osteoblasts, firefly luciferase, cherry-picked (AID 624132);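 also: firefly luciferase luminescence from reporter carrying the Shn3 3'UTR in osteoblasts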
# Assay type: functional
Activity calls are given as the source filed them. Rule as the data show it: actives have a measured AC50 and inactives only a lower limit.
measured_metric: AC50

[
  {
    "compound": "Oc1cc(Nc2ccccc2)cc2cccnc12",
    "measured_metric": "AC50",
    "value_observed": "1.79 µM (active)"
  },
  {
    "compound": "C=C1C(=O)c2sccc2C(c2ccc(OC)c(OC)c2)C1COC(C)=O (centres undefined)",
    "measured_metric": "AC50",
    "value_observed": "0.662 µM (active)"
  },
  {
    "compound": "COC(=O)[C@@]12CCCCN1[C@H](c1ccc(SC3CCCCC3)c(OC)c1)[C@@H]1C(=O)N(C)C(=O)[C@@H]12",
    "measured_metric": "AC50",
    "value_observed": "21.4 µM (active)"
  },
  {
    "compound": "CCOC(=O)c1cccc(NC2c3ccccc3C(=O)N2Cc2ccco2)c1 (centres undefined)",
    "measured_metric": "AC50",
    "value_observed": "4.26 µM (active)"
  }
]
